Assay: in vivo
Details: Sprague-Dawley, rat, plasma, po, 10 mg/kg
Measured Quantity: Cmax at 24 h (ng/mL)
Numeric only. Scale: ng/mL

Prompt: Could you share which Cmax at 24 h value was measured for COc1ccc2[nH]cc(CCNC(C)=O)c2c1 ?
Response: 2790

###

Assay: Ratio of drug concentration in brain to plasma in Wistar Han rat at 100 mg/kg, po measured at 6 hrs by HPLC-MS/MS
Below: a set of entries, each annotated with reported Kp at 6 h.

In [3]: df
Out[3]:
                                   compound  measured_value
0  COc1ccc2cccc(CCNC(C)=O)c2c1 [AGOMELATINE]            2.73

Shifting focus to the compound that follows.
Prompt: Could you share which Kp at 6 h value was measured for CCC(=O)NCC[C@@H]1CCc2ccc3c(c21)CCO3 [RAMELTEON] ?
Response: 1.02

###

Assay: Ratio of drug concentration in brain to plasma in Wistar Han rat at 100 mg/kg, po measured at 2 hrs by HPLC-MS/MS
Measured Quantity: Kp at 2 h
# respond with the number and nothing more

                                   compound  measured_value
0  CCC(=O)NCC[C@@H]1CCc2ccc3c(c21)CCO3 [RAMELTEON]            0.86

Prompt: Could you share which Kp at 2 h value was measured for COc1ccc2cccc(CCNC(C)=O)c2c1 [AGOMELATINE] ?
Response: 2.73

###

Assay: Volume of distribution at steady state in Sprague-Dawley rat at 5 mg/kg, iv
Details: in vivo
Measured Quantity: Vd (L/kg)
Numeric only. Scale: L/kg

Prompt: Could you share which Vd value was measured for COc1ccc2[nH]cc(CCNC(C)=O)c2c1 ?
Response: 1.05

###

Below: a set of entries, each annotated with reported concentration at 2 h.
Assay: Drug concentration in Wistar Han rat plasma at 100 mg/kg, po measured at 2 hrs by HPLC-MS/MS
Numeric only. Scale: µg/mL

                          query_smiles  measured_value
0  CCC(=O)NCC[C@@H]1CCc2ccc3c(c21)CCO3            3.45

Shifting focus to the molecule that follows.
Prompt: Could you share which concentration at 2 h value was measured for COc1ccc2cccc(CCNC(C)=O)c2c1 ?
Response: 1.23

###

Test: Clearance in Sprague-Dawley rat at 5 mg/kg, iv
Details: in vivo
Measured Quantity: clearance

Prompt: Could you share which clearance value was measured for COc1ccc2[nH]cc(CCNC(C)=O)c2c1 [MELATONIN] ?
Response: 35.2 mL/min/kg

###

Assay: Drug concentration in Wistar Han rat brain at 100 mg/kg, po measured at 0.37 hrs by HPLC-MS/MS
Measured Quantity: concentration at […] (ng/g)
Numeric only. Scale: ng/g

In [3]: df
Out[3]:
                          query_smiles  measured_value
0  CCC(=O)NCC[C@@H]1CCc2ccc3c(c21)CCO3            2850

Shifting focus to the compound that follows.
Prompt: Could you share which concentration at […] value was measured for COc1ccc2cccc(CCNC(C)=O)c2c1 ?
Response: 13800

###

Assay: Drug concentration in Wistar Han rat brain at 100 mg/kg, po measured at 6 hrs by HPLC-MS/MS
Measured Quantity: concentration at 6 h (ng/g)
Numeric only. Scale: ng/g

>>> df
                  query_smiles  units_of_measure  measured_value
0  COc1ccc2cccc(CCNC(C)=O)c2c1              ng/g            1210

Shifting focus to the molecule that follows.
Prompt: Could you share which concentration at 6 h value was measured for CCC(=O)NCC[C@@H]1CCc2ccc3c(c21)CCO3 ?
Response: 1190

###

Assay: Drug concentration in Wistar Han rat brain at 100 mg/kg, po measured at 2 hrs by HPLC-MS/MS
Measured Quantity: concentration at 2 h (ng/g)
Numeric only. Scale: ng/g

Prompt: Could you share which concentration at 2 h value was measured for COc1ccc2cccc(CCNC(C)=O)c2c1 ?
Response: 3200

Prompt: Could you share which concentration at 2 h value was measured for CCC(=O)NCC[C@@H]1CCc2ccc3c(c21)CCO3 ?
Response: 3030

###

Experiment: Half life in Sprague-Dawley rat at 10 mg/kg, po
Conditions: in vivo
Measured Quantity: half-life
Write the quantity with the unit trailing the number.

Prompt: Could you share which half-life value was measured for COc1ccc2[nH]cc(CCNC(C)=O)c2c1 ?
Response: 31.8 min

###

Test: Ratio of drug concentration in brain to plasma in Wistar Han rat at 100 mg/kg, po measured at 0.37 hrs by HPLC-MS/MS
Measured Quantity: Kp at […]
# respond with the number and nothing more

>>> df
                  query_smiles  measured_value
0  COc1ccc2cccc(CCNC(C)=O)c2c1            3.19

Shifting focus to the molecule that follows.
Prompt: Could you share which Kp at […] value was measured for CCC(=O)NCC[C@@H]1CCc2ccc3c(c21)CCO3 ?
Response: 0.91

###

Test: Drug concentration in Sprague-Dawley rat at 5 mg/kg, iv measured at 0 hrs
Details: in vivo
Measured Quantity: concentration at 0 h
Write the quantity with the unit trailing the number.

Prompt: Could you share which concentration at 0 h value was measured for COc1ccc2[nH]cc(CCNC(C)=O)c2c1 [MELATONIN] ?
Response: 935 ng/mL

###

Assay: in vivo
Conditions: Sprague-Dawley, rat, po, 10 mg/kg
Measured Quantity: bioavailability (%)
Numeric only. Scale: %

Prompt: Could you share which bioavailability value was measured for COc1ccc2[nH]cc(CCNC(C)=O)c2c1 ?
Response: 53.5
